Provenance of the data: paper PMC10497828

target: Aβo-VEGF interaction (recombinant human VEGF165) (Homo sapiens, UniProt P05067); construct: Biotinyl-Amyloid b pr otein ( 1-42); purchased R&D Systems (VEGF165); Bachem (biotinyl-Aβ 1-42) 293-VE (VEGF165); H-5642 (biotinyl-Aβ 1-42); experiment: Competitive ELISA, Aβo binding to immobilized VEGF165; format: biochemical; conditions: Aβo 2.1 μM preincubated with BP 1 h RT; three-parameter sigmoidal fit; n = 5-6
Sequence (P05067 672-713 limits assumed): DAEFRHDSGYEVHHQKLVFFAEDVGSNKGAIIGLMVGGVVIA
Ends that are not written are not given here.
Readout kind: pEC50
Give bare numbers, as −log10 of the molar value.

What pEC50 value was documented for this sequence, KRKKSRYKSWSVYVG [BP] ? 6.46
